target desc: T1, IL10Rα/IL2Rγ receptor (human, UniProt Q13651 22-578; P31785 23-369)
T1 sequence (looked up) 1: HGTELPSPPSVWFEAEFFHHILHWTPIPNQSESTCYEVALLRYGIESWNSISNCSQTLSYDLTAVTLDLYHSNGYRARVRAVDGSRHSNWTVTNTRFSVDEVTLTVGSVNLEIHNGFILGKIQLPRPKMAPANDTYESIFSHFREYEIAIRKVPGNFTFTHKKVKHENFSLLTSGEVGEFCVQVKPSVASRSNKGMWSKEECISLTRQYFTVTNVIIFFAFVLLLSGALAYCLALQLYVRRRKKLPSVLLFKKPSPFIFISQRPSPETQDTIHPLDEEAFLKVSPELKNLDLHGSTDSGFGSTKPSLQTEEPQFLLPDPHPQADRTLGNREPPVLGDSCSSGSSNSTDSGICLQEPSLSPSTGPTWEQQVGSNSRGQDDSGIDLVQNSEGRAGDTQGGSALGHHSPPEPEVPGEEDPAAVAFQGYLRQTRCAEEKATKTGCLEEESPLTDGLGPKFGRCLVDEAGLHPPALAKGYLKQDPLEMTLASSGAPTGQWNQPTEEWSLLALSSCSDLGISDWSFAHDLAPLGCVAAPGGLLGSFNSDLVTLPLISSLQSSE
T1 sequence (looked up) 2: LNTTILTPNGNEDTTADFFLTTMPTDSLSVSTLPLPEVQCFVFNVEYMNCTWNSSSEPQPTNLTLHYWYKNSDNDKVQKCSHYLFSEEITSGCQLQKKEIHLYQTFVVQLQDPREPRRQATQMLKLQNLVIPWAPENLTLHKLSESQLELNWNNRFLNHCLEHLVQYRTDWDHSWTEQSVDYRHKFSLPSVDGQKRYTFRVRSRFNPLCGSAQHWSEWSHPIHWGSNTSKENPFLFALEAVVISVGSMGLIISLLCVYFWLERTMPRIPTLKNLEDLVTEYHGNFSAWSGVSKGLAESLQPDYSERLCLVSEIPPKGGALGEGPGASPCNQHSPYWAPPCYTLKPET
method: cell-based or functional assay
observation type: pSTAT3 MFI, NK cells, 100 nM (unstimulated 1149) (MFI)
// return numeric value only (unit: MFI, not printed)

A selection of reference data follows.
binder	numeric readout
DR441(DR236-DR231) (bispecific antibody) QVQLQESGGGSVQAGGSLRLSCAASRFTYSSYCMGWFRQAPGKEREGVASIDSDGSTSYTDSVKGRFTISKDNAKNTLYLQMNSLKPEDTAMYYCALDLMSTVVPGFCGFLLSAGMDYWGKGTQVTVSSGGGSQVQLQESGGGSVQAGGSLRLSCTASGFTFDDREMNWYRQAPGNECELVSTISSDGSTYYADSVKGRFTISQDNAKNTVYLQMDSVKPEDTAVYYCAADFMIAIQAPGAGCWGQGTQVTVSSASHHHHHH	1660
DR465(DR240-DR231) (bispecific antibody) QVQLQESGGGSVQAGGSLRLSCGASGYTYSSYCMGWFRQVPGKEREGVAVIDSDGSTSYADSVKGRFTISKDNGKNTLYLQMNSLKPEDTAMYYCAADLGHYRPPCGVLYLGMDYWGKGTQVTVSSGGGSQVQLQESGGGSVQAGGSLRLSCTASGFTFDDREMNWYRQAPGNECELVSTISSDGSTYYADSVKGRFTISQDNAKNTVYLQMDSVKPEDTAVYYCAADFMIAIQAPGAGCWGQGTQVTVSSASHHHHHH	1880
DR466(DR240-DR232) (bispecific antibody) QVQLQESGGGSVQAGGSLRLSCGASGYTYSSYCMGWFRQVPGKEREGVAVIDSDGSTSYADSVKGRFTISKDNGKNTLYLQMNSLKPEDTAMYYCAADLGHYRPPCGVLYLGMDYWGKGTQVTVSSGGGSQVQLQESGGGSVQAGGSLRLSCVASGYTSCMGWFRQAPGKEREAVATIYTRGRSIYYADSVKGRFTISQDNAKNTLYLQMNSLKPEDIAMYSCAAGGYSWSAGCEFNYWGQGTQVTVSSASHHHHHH	1280
DR474(DR241-DR234) (bispecific antibody) QVQLQESGGGSVQAGGSLRLSCAASGYSNCSYDMTWYRQAPGKEREFVSAIHSDGSTRYADSVKGRFFISQDNAKNTVYLQMNSLKPEDTAMYYCKTDPLHCRAHGGSWYSVRANYWGQGTQVTVSSGGGSQVQLQESGGGSVQAGGSLRLSCVASGYTFSSYCMGWFRQAPGKEREGVAALGGGSTYYADSVKGRFTISQDNAKNTLYLQMNSLKPEDTAMYYCAAAWVACLEFGGSWYDLARYKHWGQGTQVTVSSASHHHHHH	1230

Here is another binder to look at.
Quick check: pSTAT3 MFI, NK cells, 100 nM (unstimulated 1149) of DR468(DR240-DR234) (bispecific antibody) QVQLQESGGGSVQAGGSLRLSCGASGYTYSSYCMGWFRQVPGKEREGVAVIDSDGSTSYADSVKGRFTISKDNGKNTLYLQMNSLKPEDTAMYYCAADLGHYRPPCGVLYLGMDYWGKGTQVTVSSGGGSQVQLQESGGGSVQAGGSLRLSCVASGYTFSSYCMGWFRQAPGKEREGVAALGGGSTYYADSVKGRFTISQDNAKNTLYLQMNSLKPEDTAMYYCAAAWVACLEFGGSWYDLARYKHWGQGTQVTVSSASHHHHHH ? 1290
